ASSAYED_SYSTEM: Oxysterols receptor LXR-alpha (Homo sapiens)
ASSAY_DETAILS: ATG_LXRa_TRANS: Attagene TRANS-FACTORIAL HepG2 Assay for human Liver X Receptor alpha (LXRa) (AID 2282980)
PARTICULARS: HepG2 Attagene TRANS reporter, LXRa transactivation
Records with an inconclusive call do not appear. Calls of active or inactive are those of the source. The calls were made as follows: active = hit-call score of the fitted dose curve at least 0.9, where 1 is the maximum; inconclusive = response in the unintended direction; inactive = score below 0.9.
Outcomes: active, inactive

# COMPOUND, ASSAYED_SYSTEM, CAT
rows = [
    ("CN(C)C(=S)S", "Oxysterols receptor LXR-alpha (Homo sapiens)", "active"),
    ("O=C=Nc1ccc(Cl)cc1", "Oxysterols receptor LXR-alpha (Homo sapiens)", "inactive"),
    ("O=CCCl", "Oxysterols receptor LXR-alpha (Homo sapiens)", "inactive"),
    ("CC(C)(C1CCC(O)CC1)C1CCC(O)CC1 (stereo not given)", "Oxysterols receptor LXR-alpha (Homo sapiens)", "inactive"),
    ("CC(C)(C)c1cc([N+](=O)[O-])cc(C(C)(C)C)c1O", "Oxysterols receptor LXR-alpha (Homo sapiens)", "inactive"),
]

---

ASSAY_DETAILS: STM_H9_CystineISnorm_perc: Stemina devTOX quickPredict H9 human embryonic stem cell (hESC)-based Assay for Cystine (CYSS) Metabolite Biomarker, Normalized (AID 2283713)
The source made the active and inactive calls. How the source made its calls: active means hit-call score of the fitted dose curve at least 0.9, where 1 is the maximum; inactive means score below 0.9.
MEASURED_METRIC: AC50

# SUBSTANCE_SMILES, MEASURED_METRIC, ENDPOINT_RESULT
records = [
    ("CN(C)C(=S)S", "AC50", "75.9 µM (active)"),
    ("OCCN(CCO)CCO", "AC50", "inactive"),
    ("N#CS", "AC50", "inactive"),
    ("CC(C)O.CC(C)O.OCCN(CCO)CCO.OCCN(CCO)CCO.[Ti]", "AC50", "74.1 µM (active)"),
]

---

ASSAYED_SYSTEM: Estrogen receptor (Homo sapiens)
ASSAY_DETAILS: OT_ER_ERaERa_1440: Odyssey Thera (OT) 24-hour HEK293T Protein-Complementation Assay for Estrogen Receptor-alpha/-alpha Homodimer (AID 2283349);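 also: hits raise fluorescence above DMSO for agonists and antagonists alike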
Calls of active or inactive are those of the source. The calls were made as follows: active = hit-call score of the fitted dose curve at least 0.9, where 1 is the maximum; inconclusive = response in the unintended direction; inactive = score below 0.9.

# COMPOUND, outcome
records = [
    ("CCC[CH2][Sn]([Cl])([Cl])[CH2]CCC", "inactive"),
    ("CC(C)N(C(=O)CCl)c1ccccc1", "inactive"),
    ("CCCSP(=S)(OCC)Oc1ccc(SC)cc1 (stereo not given)", "inactive"),
    ("N#Cc1cccnc1", "inactive"),
    ("Oc1c(Br)cc(Br)cc1Br", "inactive"),
    ("O=S1OC[C@@H]2[C@H](CO1)[C@]1(Cl)C(Cl)=C(Cl)[C@@]2(Cl)C1(Cl)Cl (stereo not given in full)", "inactive"),
    ("CC(C)=CC1C(C(=O)OCc2cccc(Oc3ccccc3)c2)C1(C)C (stereo not given)", "inactive"),
    ("O=C(O)COc1ccc(Cl)cc1", "inactive"),
    ("CNC(=O)O/N=C/C(C)(C)S(C)(=O)=O", "inactive"),
    ("O=CCCl", "inactive"),
]

---

ASSAY_DETAILS: CCTE_Shafer_MEA_acute_per_network_burst_electrodes_number_mean: CCTE's Neural Acute Assay for Mean Number of Electrodes in a Network Burst, Shafer Lab (AID 2284021);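 also: curves fitted for decreases only so hits reduce electrodes per burst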
Procedure: CCTE_Shafer_MEA_acute assay is conducted using Axion Biosystems 48 well microelectrode array (MEA) plates and Maestro recording system. Each well of the MEA plate contains a grid of 16 microelectrodes embedded in the culture surface. Electrically active cells, such as neurons, can be cultured over the electrodes, and electrical activity in these cells can be recorded extracellularly. […]
Calls of active or inactive are those of the source. Rule for the calls: active = hit-call score of the fitted dose curve at least 0.9, where 1 is the maximum; inactive = score below 0.9.
Outcomes: active, inactive

# MOLECULE, CAT
measured = [
    ("CN(C)C(=S)S", "inactive"),
    ("Oc1ccc(Cc2ccc(O)cc2)cc1", "inactive"),
    ("CCCCCCCCCCCCc1cccc(S(=O)(=O)O)c1", "inactive"),
    ("CS(=O)(=O)c1ccc(C(=O)C2C(=O)CCCC2=O)c(Cl)c1COCC(F)(F)F", "inactive"),
    ("N#Cc1cccnc1", "inactive"),
    ("OCCCCO", "inactive"),
    ("Cc1cc(C(F)(C(F)(F)F)C(F)(F)F)ccc1NC(=O)c1cccc(I)c1C(=O)NC(C)(C)CS(C)(=O)=O", "inactive"),
    ("CCCCOC(=O)COC(=O)c1ccccc1C(=O)OCCCC", "inactive"),
    ("CC(C)[C@@H](Nc1ccc(C(F)(F)F)cc1Cl)C(=O)OC(C#N)c1cccc(Oc2ccccc2)c1 (some centres undefined)", "active"),
]
